Listing of entries alongside the reported melting point.

In the examples that follow, each entry is paired with its recorded melting point.
>  <compound>
C=CCC(CC=C)(C(=O)O)S(=O)(=O)c1ccc(OC)cc1

>  <result>
114 to 116 °C

$$$$
>  <compound>
CCOC(=O)c1ncc2[nH]c3cccc(COC)c3c2c1C

>  <result>
133 to 135 °C

$$$$
>  <compound>
Cc1c(N)ccc2c(O)c(C(=O)NCc3ccc(Cl)cc3)cnc12

>  <result>
256 to 258 °C

$$$$
>  <compound>
NN=Cc1ccc(C(=O)NC2CCC3(CC2)CN(CC(=O)O)C(=O)O3)cc1 (stereo not given)

>  <result>
280 to 284 °C

$$$$

Report melting point for "COc1ccc(C=CC(=O)O)cc1-c1cc2c(cc1OCCCCCO)C(C)(C)CCC2(C)C" please.
115 to 117 °C

The reported measurements were obtained from a melting point compilation (Tetko et al.; mined from patent text by program, amines drawn as free bases though some values may be those of a salt).
